meta.source: ChEMBL document CHEMBL5223109

biological target: Cytochrome P450 1A2 (Homo sapiens, UniProt P05177); test: Inhibition of CYP1A2 (unknown origin); assay type: ADME
Sequence (P05177 whole entry): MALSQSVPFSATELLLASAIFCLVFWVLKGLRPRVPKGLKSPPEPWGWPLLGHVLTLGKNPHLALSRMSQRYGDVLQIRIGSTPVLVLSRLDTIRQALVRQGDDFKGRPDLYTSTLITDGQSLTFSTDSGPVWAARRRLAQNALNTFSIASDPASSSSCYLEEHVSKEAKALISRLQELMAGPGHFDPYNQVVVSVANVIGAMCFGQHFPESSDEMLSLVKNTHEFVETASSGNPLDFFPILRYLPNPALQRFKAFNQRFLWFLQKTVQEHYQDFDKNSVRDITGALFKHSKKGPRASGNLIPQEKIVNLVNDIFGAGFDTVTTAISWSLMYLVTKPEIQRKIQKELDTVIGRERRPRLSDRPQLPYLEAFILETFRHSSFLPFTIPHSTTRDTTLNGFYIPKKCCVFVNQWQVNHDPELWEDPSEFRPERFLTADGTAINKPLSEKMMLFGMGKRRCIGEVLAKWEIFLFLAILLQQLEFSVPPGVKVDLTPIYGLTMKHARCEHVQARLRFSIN
Readout label: IC50 (µM)

Observe how each entry below is paired with its result.
[[record]]
structure_notation = "Nc1ccncc1-c1ccnc2c1cnn2-c1ccc(F)cc1"
uom = "µM"
reported_measurement = 26.9

[[record]]
structure_notation = "Cc1ccncc1-c1ccnn2c(-c3ccccc3)cnc12"
uom = "µM"
reported_measurement = 0.318

[[record]]
structure_notation = "Cc1ccncc1-c1ccnc2c1cnn2-c1nccs1"
uom = "µM"
reported_measurement = 0.617


[P] Cc1ccncc1-c1ccnc2c1cnn2-c1ccc(F)c(Cl)c1
[Q] Fc1ccc(-n2ncc3c(-c4cccnc4)ccnc32)cc1
Compare P and Q and name the one whose reported IC50 is smaller. Write down the label of the entry you select.
Q
(Q: 0.216 µM, P: 0.662 µM)

* * *

assay: Metabolic stability in mouse liver microsomes assessed as parent compound remaining; assay type: ADME, Microsome; further: time not given here
Readout label: Stability (%)

[[record]]
structure_notation = "Cc1ccncc1-c1ccnc2c1cnn2-c1ccccc1"
reported_measurement = 7

[[record]]
structure_notation = "Fc1ccc(-n2ncc3c(-c4cncnc4NC4CC4)ccnc32)cc1"
reported_measurement = 7

[[record]]
structure_notation = "Cc1ccncc1-c1ccnn2c(-c3ccccc3)ccc12"
reported_measurement = 7


* * *

target: Steroid 17-alpha-hydroxylase/17,20 lyase (Homo sapiens, UniProt P05093); experiment: Inhibition of human CYP17A1; type: ADME
Sequence (P05093 whole entry): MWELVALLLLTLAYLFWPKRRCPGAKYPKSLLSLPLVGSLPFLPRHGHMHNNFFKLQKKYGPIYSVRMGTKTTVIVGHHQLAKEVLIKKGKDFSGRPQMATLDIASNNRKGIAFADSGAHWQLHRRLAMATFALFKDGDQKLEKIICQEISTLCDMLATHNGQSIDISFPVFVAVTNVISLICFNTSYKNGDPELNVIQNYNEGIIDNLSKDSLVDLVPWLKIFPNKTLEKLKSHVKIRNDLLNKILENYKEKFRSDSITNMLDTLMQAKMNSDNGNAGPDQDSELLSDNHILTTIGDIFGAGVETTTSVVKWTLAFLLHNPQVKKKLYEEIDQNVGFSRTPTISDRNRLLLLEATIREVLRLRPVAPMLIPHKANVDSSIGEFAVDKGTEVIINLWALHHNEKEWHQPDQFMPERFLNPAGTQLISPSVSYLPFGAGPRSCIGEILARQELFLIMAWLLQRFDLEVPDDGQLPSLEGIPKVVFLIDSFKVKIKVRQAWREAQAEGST
Readout label: IC50 (nM)

[[record]]
structure_notation = "Cc1ccncc1-c1cccc2c1OCCN2c1ccccc1"
experimental_system = "Steroid 17-alpha-hydroxylase/17,20 lyase (Homo sapiens, UniProt P05093)"
readout_label = "IC50"
uom = "nM"
reported_measurement = 8

[[record]]
structure_notation = "Cc1ccncc1-c1ccnc2c1cnn2-c1ccccc1"
experimental_system = "Steroid 17-alpha-hydroxylase/17,20 lyase (Homo sapiens, UniProt P05093)"
readout_label = "IC50"
uom = "nM"
reported_measurement = 7

[[record]]
structure_notation = "Cc1ccncc1-c1ccnc2c(-c3ccccc3)csc12"
experimental_system = "Steroid 17-alpha-hydroxylase/17,20 lyase (Homo sapiens, UniProt P05093)"
readout_label = "IC50"
uom = "nM"
reported_measurement = 10

[[record]]
structure_notation = "Cc1ccncc1-c1ccnc2c1cnn2-c1ccc(F)cc1F"
experimental_system = "Steroid 17-alpha-hydroxylase/17,20 lyase (Homo sapiens, UniProt P05093)"
readout_label = "IC50"
uom = "nM"
reported_measurement = 9

[[record]]
structure_notation = "Nc1ccncc1-c1ccnc2c1cnn2-c1ccc(F)cc1"
experimental_system = "Steroid 17-alpha-hydroxylase/17,20 lyase (Homo sapiens, UniProt P05093)"
readout_label = "IC50"
uom = "nM"
reported_measurement = 5

[[record]]
structure_notation = "Cc1ccncc1-c1ccnc2c1cnn2C(C)(C)C"
experimental_system = "Steroid 17-alpha-hydroxylase/17,20 lyase (Homo sapiens, UniProt P05093)"
readout_label = "IC50"
uom = "nM"
reported_measurement = 92

[[record]]
structure_notation = "Cc1ccncc1-c1ccnc2c(-c3ccccc3)noc12"
experimental_system = "Steroid 17-alpha-hydroxylase/17,20 lyase (Homo sapiens, UniProt P05093)"
readout_label = "IC50"
uom = "nM"
reported_measurement = 5

[[record]]
structure_notation = "COc1ccccc1-n1ncc2c(-c3cnccc3C)ccnc21"
experimental_system = "Steroid 17-alpha-hydroxylase/17,20 lyase (Homo sapiens, UniProt P05093)"
readout_label = "IC50"
uom = "nM"
reported_measurement = 9


[I] Cc1ccncc1-c1ccnn2c(-c3ccccc3)ccc12
[II] Nc1ncncc1-c1ccnc2c1cnn2-c1ncccc1C(F)(F)F
[III] Nc1ncncc1-c1ccnc2c1cnn2-c1ccc(F)cc1
[IV] Fc1ccc(-n2ncc3c(-c4cccnc4)ccnc32)cc1
Ascending by IC50, please. Use the labels to give the requested order.
I, II, III, IV
(I: 5 nM, II: 11 nM, III: 16 nM, IV: 96 nM)

[1] Cc1ccncc1-c1ccnc2c1cnn2-c1ccc(F)cc1Cl
[2] Nc1ncncc1-c1ccnc2c1cnn2-c1ccc(F)cc1C(F)(F)F
[3] Fc1ccc(-n2ncc3c(-c4cncnc4NCC(F)(F)F)ccnc32)cc1
Order the items by recorded IC50; the first position goes to the largest value. Use the labels to give the requested order.
2, 3, 1

* * *

target: Cytochrome P450 1A2 (Homo sapiens); test: Inhibition of CYP1A2 (unknown origin); assay type: ADME
Readout label: IC50 (µM)

Observe how each entry below is paired with its result.
[[record]]
structure_notation = "Fc1ccc(-n2ncc3c(-c4cncn5cccc45)ccnc32)cc1"
reported_measurement = 2.33

[[record]]
structure_notation = "Cc1ccncc1-c1ccnc2c(-c3ccccc3)noc12"
reported_measurement = 0.321

[[record]]
structure_notation = "Cc1ccncc1-c1ccnc2c1cnn2-c1ccc(F)cc1Cl"
reported_measurement = 8.7

[[record]]
structure_notation = "Cc1ccncc1-c1ccnc2c1cnn2-c1ncccc1Cl"
reported_measurement = 16.7

[[record]]
structure_notation = "COc1c(F)cccc1-n1ncc2c(-c3cnccc3C)ccnc21"
reported_measurement = 4.74

[[record]]
structure_notation = "Cn1cncc1-c1ccnc2c1cnn2-c1ccc(F)cc1"
reported_measurement = 0.058

[[record]]
structure_notation = "Cc1ccncc1-c1ccnc2c1cnn2CC(F)(F)F"
reported_measurement = 11.2


[1] Cc1ccncc1-c1cccc2c(-c3ccccc3)noc12
[2] Cc1ccncc1-c1ccnc2c1cnn2Cc1ccc(F)cc1
[3] Cc1ccncc1-c1cccc2c1OCCN2c1ccccc1
[4] Cc1ccncc1-c1ccnc2c1cnn2-c1ccc(F)cc1
Order the items by recorded IC50; the first position goes to the largest value. Use the labels to give the requested order.
2, 4, 3, 1
(2: 5.14 µM, 4: 0.384 µM, 3: 0.14 µM, 1: 0.028 µM)

* * *

IC50 for assorted molecules
target: Steroid 17-alpha-hydroxylase/17,20 lyase (Homo sapiens, UniProt P05093); assay: Inhibition of human CYP17A1; type: ADME

[[record]]
structure_notation = "Cc1ccncc1-c1ccnc2c1cnn2C"
readout_label = "IC50"
reported_measurement = "> 1000 nM"

[[record]]
structure_notation = "Fc1ccc(-n2ncc3c(-c4cncn5cccc45)ccnc32)cc1"
readout_label = "IC50"
reported_measurement = "> 1000 nM"


Proceeding to the next molecule to report its IC50.
Could you share which IC50 value was measured for Fc1ccc(-n2ncc3c(-c4cncnc4N4CC(F)(F)C4)ccnc32)cc1 ?
4 nM
